Quick reference: MIC of the listed items.
tested on: gram positive bacteria; test: In vitro anti-bacterial activity assay (broth dilution MIC), gram positive bacteria; format: cell-based, S. aureus; conditions: Staphylococcus aureus, 18 h, S. aureus MRSA5; read-out: Median MIC's G+ S. aureus MRSA5
Please state the number and follow it with the unit.

Reference set, count: 4
{"columns": ["ITEM SMILES", "ENDPOINT VALUE"],
 "data": [
  ["CN(C)CC(=O)Nc1cccc(-c2ccc(O)c3c2C[C@H]2C[C@H]4[C@H](N(C)C)C(O)=C(C(N)=O)C(=O)[C@@]4(O)C(O)=C2C3=O)c1", "2 µg/mL"],
  ["CN(C)[C@@H]1C(O)=C(C(N)=O)C(=O)[C@@]2(O)C(O)=C3C(=O)c4c(O)ccc(C(=O)CNCC(F)(F)F)c4C[C@H]3C[C@@H]12", "2 µg/mL"],
  ["CN(C)[C@@H]1C(O)=C(C(N)=O)C(=O)[C@@]2(O)C(O)=C3C(=O)c4c(O)ccc(-c5cccc(C(=O)NCCN6CCCCC6)c5)c4C[C@H]3C[C@@H]12", "8 µg/mL"],
  ["CN1CCN(Cc2ccc(-c3ccc(O)c4c3C[C@H]3C[C@H]5[C@@H](N(C)C)C(O)=C(C(N)=O)C(=O)[C@@]5(O)C(O)=C3C4=O)o2)CC1", "32 µg/mL"]
]}

Q: Which measured MIC value corresponds to `CCOC(=O)CCNC(=O)c1cccc(-c2ccc(O)c3c2C[C@H]2C[C@H]4[C@H](N(C)C)C(O)=C(C(N)=O)C(=O)[C@@]4(O)C(O)=C2C3=O)c1` ?
Result: 2 µg/mL

====

Measured MIC, listed per entry for reference.
tested on: gram negative bacteria; assay: In vitro anti-bacterial activity assay (broth dilution MIC), gram negative bacteria; assay type: cell-based, E. coli; details: Escherichia coli, ATCC25922, 18 h, E. coli ATCC 25922; read-out: Median MIC's G− E. coli ATCC 25922
# number only, unit µg/mL dropped from output

Illustrative cases are given below, each with its answer.
{"columns": ["ITEM SMILES", "MEASUREMENT UNITS", "MIC"],
 "data": [
  ["CCN(CC)CCNC(=O)c1cccc(-c2ccc(O)c3c2C[C@H]2C[C@H]4[C@@H](N(C)C)C(O)=C(C(N)=O)C(=O)[C@@]4(O)C(O)=C2C3=O)c1", "µg/mL", 64],
  ["COCCNC(=O)c1cccc(-c2ccc(O)c3c2C[C@H]2C[C@H]4[C@H](N(C)C)C(O)=C(C(N)=O)C(=O)[C@@]4(O)C(O)=C2C3=O)c1", "µg/mL", 8]
]}

Q: Name the recorded MIC for `CN(C)CCCNCc1cccc(-c2ccc(O)c3c2C[C@H]2C[C@H]4[C@H](N(C)C)C(O)=C(C(N)=O)C(=O)[C@@]4(O)C(O)=C2C3=O)c1` .
Result: 16

Q: May I ask what MIC has been recorded for `CN(C)CCCNC(=O)c1cccc(-c2ccc(O)c3c2C[C@H]2C[C@H]4[C@H](N(C)C)C(O)=C(C(N)=O)C(=O)[C@@]4(O)C(O)=C2C3=O)c1` ?
Result: 32

Q: Value lookup for MIC; key = `CN(C)CC/C(=N\OC(C)(C)C)c1ccc(O)c2c1C[C@H]1C[C@H]3[C@H](N(C)C)C(O)=C(C(N)=O)C(=O)[C@@]3(O)C(O)=C1C2=O`
Result: 0.5
